# credit: patent US20210206855A1

assay target: T1, recombinant human CTLA4-Fc (Sino Biological, 11159-H03H) (human, UniProt P16410 37-162)
T1 construct: bought; whole entry named; Biotinylated in the yeast display assays; also called human CTLA4 fused with human FC fragment; biotinylated CTLA4-Fc; not shown: human Fc fragment
T1 sequence (looked up): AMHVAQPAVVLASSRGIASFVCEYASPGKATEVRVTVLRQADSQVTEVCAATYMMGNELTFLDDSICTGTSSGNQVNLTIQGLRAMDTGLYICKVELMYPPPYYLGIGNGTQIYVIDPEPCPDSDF
assay overview: ELISA, coated human CTLA4-Fc, batch 2
value kind: EC50 (nM)
Give just the numeric value; nM need not be written.

Input: What does the data say about its EC50? Entry: TY22565 (antibody, IgG1, V domains shown) VH: EVQLVESGGGLVQPGGSLRLSCAASGYSISSGYHWSWIRQAPGKGLEWLARIDWDDDKYYSTSLKSRLTISRDNSKNTLYLQLNSLRAEDTAVYYCARSYVYFDYWGQGTLVTVSS VL: EVGSYPQPSSDCVPYYYACAYSGRSAGGGGSPLGLAGSGGSDIQLTQSPSSLSASVGDRVTITCRASQSVRGRFLAWYQQKPGKAPKLLIYDASNRATGIPSRFSGSGSGTDFTLTISSLQPEDFATYYCQQSSSWPPTFGQGTKVEIKR
Output: 210

Input: What does the data say about its EC50? Entry: TY22566 (antibody, IgG1, V domains shown) VH: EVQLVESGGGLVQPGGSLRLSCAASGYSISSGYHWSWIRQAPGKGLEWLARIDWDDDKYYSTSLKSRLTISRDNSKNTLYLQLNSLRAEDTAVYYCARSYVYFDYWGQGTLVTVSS VL: EVGSYPNPASDCVPYYYACAYSGRSAGGGGSPLGLAGSGGSDIQLTQSPSSLSASVGDRVTITCRASQSVRGRFLAWYQQKPGKAPKLLIYDASNRATGIPSRFSGSGSGTDFTLTISSLQPEDFATYYCQQSSSWPPTFGQGTKVEIKR
Output: 163
